Consider the following compounds and their measured growth inhibition readings.
- measurement_notes: NCI Yeast Anticancer Drug Screen. Data for the mec2-1 strain (AID 157)
- condition_set: S. cerevisiae mec2-1 strain, at 5.0 µM (retest, dose inferred, filed as 0.5), active compounds read high
The panel holds about 79,000 compounds, 15% with a hit somewhere; the sample as a whole holds those more often.
Response body: numeric value in %, unit text excluded.

Ask: Any idea what its growth inhibition is? The compound is O=C(/C(O)=C(\O)C(=O)N(C1CCCCC1)C1CCCCC1)N(C1CCCCC1)C1CCCCC1
Reply: -2

Ask: Would you kindly share the measured growth inhibition for CN1C=Cc2ccccc2C1C(C1c2ccccc2C=CN1C)[N+](=O)[O-] (configuration not stated) ?
Reply: 8

Ask: // query growth inhibition value for entry Cc1ccc(N2C(=O)C(Cl)=C(Cl)C2=O)cc1
Reply: 12

Ask: Param item = CSc1nc(C)c(C(=O)CCN2CCOCC2)s1 ; retrieve measured growth inhibition.
Reply: 11

Ask: growth inhibition lookup needed for CC(C)(C)C(=O)CC(=O)C(F)(F)C(F)(F)C(F)(F)F.[Ag] , thanks.
Reply: 99

Ask: Using the record for CC(=O)c1nc2ccccc2n1C(C)C(=O)c1ccccc1 (configuration not stated) , report its growth inhibition.
Reply: 23

Ask: I have this compound here, O=C(CBr)C1(Br)CCN(Cc2ccccc2)CC1 , and I need its recorded growth inhibition.
Reply: 17

Ask: What does the data say about its growth inhibition? Entry: O=NNc1ncc(Sc2ccccc2)nc1Sc1ccccc1
Reply: -11

###

- measurement_notes: NCI Yeast Anticancer Drug Screen. Data for the bub3 strain (AID 167)
- condition_set: S. cerevisiae bub3 mutant strain, at 50.0 µM
Compounds without any hit were thinned out: in the full panel of roughly 79,000, 15% have a hit. Active and inactive are the calls of the source. No stated cut-off is given here; in the data, active means growth inhibition above about 70%; inactive means the rest.
Classes to choose from: active, inactive

Answered examples (10):
{"compound": "CCc1cc(C)cc(NC(=O)OC2CCCCC2C)c1 (centres undefined)", "group_label": "active"}
{"compound": "O=C(CCl)Oc1ccc(Sc2ccc(OC(=O)CCl)cc2)cc1", "group_label": "active"}
{"compound": "ClC1=C(Cl)C(Cl)=C(Cl)C1", "group_label": "active"}
{"compound": "CCCCCCCCCCCCOC(=O)C[n+]1cccc(C(=O)Nc2ccccc2)c1", "group_label": "active"}
{"compound": "C[C@@]12C[C@@H](Br)[C@H](Br)C[C@]1(C)O2", "group_label": "inactive"}
{"compound": "C[C@]12CC[C@@H]3c4cc(OCC(F)(F)F)c(O)cc4CC[C@H]3[C@@H]1CC[C@@H]2O", "group_label": "active"}
{"compound": "O=C(O)c1ccccc1N=N/C(=N\\Nc1cc(S(=O)(=O)O)ccc1O)c1ccccc1", "group_label": "inactive"}
{"compound": "COc1ccccc1N=Nc1c(N)nc(N)[nH]c1=O", "group_label": "inactive"}
{"compound": "CCOC(=O)/C(C#N)=C/c1ccccc1Br", "group_label": "inactive"}
{"compound": "Cc1cc(C)c(Cc2cc(C(C)(C)C)cc(C)c2O)cc1Cc1cc(C(C)(C)C)cc(C)c1O", "group_label": "inactive"}

Ask: Which result was noted for this compound in the test: C#CC(CC(C)C)(CC(C)C)OC(=O)Nc1ccccc1
Reply: active

Ask: Returns: the outcome recorded for CCCC(=O)NCCNC(=O)CCC in this assay.
Reply: inactive

Ask: Can you look up the reported call for CN(C)CC(=O)OCC[N+](C)(C)C for me?
Reply: inactive

Ask: // return assay outcome for COc1ccc2c(c1OC)C1=C(C2=O)c2cc3c(cc2CCN1)OCO3
Reply: inactive

Ask: Could you kindly confirm the outcome this assay logged for CC1(c2ccc(Cl)cc2)OC(=O)c2c1ccc1ccccc21 (centres undefined) ?
Reply: active

###

- measurement_notes: NCI Yeast Anticancer Drug Screen. Data for the mlh1 rad18 strain (AID 175)
- condition_set: S. cerevisiae mlh1 rad18 strain growth inhibition; at 50.0 µM; active compounds read high
Compounds without any hit were thinned out: in the full panel of roughly 79,000, 15% have a hit.
assay_readout: growth inhibition (%)
Dear colleague, please return just the value in %, with no unit written.

{"compound": "c1ccc(-c2n[nH]c3c4ccccc4c4ccccc4c23)cc1", "result_units": "%", "growth inhibition": 95}

We now examine a further compound.
Ask: Need growth inhibition of O=C1c2ccccc2C2(O)c3cc4ccccc4cc3OC12O (stereo unspecified) , thanks.
Reply: 72.7

###

- measurement_notes: NCI Yeast Anticancer Drug Screen. Data for the bub3 strain (AID 167)
- condition_set: S. cerevisiae bub3 mutant strain, at 50.0 µM (retest, dose inferred, filed as 5.0)
The panel holds about 79,000 compounds, 15% with a hit somewhere; the sample as a whole holds those more often. Calls of active or inactive are those of the source. Cut-off read from the data, not from the text of the source: active = growth inhibition above about 70%; inactive = the rest.
Assign a class; possible classes are active, inactive

# example entries with known answers
{"compound": "CCCCCCc1cc(C(=O)N/N=C\\c2cccc([N+](=O)[O-])c2)c2ccccc2n1", "group_label": "inactive"}
{"compound": "O=C1C(=C2C(=O)c3ccccc3[N+]2=O)N([O-])c2ccccc21", "group_label": "inactive"}
{"compound": "C1=C(c2ccccc2)[P+](c2ccccc2)(c2ccccc2)C=C(c2ccccc2)[P+]1(c1ccccc1)c1ccccc1", "group_label": "active"}
{"compound": "CCOC(=O)C(=O)CC(=O)C(Br)C(Br)c1ccc(Cl)cc1 (stereo not drawn)", "group_label": "active"}
{"compound": "CC(C)(C)c1ccc(-c2nnc(SCc3ccc(Cl)cc3)n2-c2cccc(C(F)(F)F)c2)cc1", "group_label": "inactive"}
{"compound": "NC(=O)C1CCN(N=Nc2c(-c3ccccc3)n[nH]c2-c2ccccc2)CC1", "group_label": "active"}
{"compound": "CCOC(=O)c1[nH]c(Br)c(-c2ccc(OC)c(OC)c2)c1Br", "group_label": "active"}
{"compound": "Cc1nc(C(N)=S)sc1C(=O)CC(=O)C(=O)Nc1nc2ccccc2[nH]1", "group_label": "inactive"}

Ask: Recorded test call requested for O=C(OCc1ccccc1)c1ccccc1Cl
Reply: inactive

Ask: Recorded call for O=C1C(=O)c2ccccc2C=C1Br ?
Reply: active

Ask: # fetch the recorded call for O=C1C=CC(=NN=C(c2ccccc2)c2ccccc2)C=C1 here
Reply: inactive

Ask: Recorded call for O=C(N/N=C/c1ccccc1O)C1Cc2ccccc2C1C(Cl)Cl (stereo not drawn) ?
Reply: active

Ask: Answer briefly: the call reported for O=C(O)c1nc2cc(C(F)(F)F)ccc2nc1Nc1ccc(Cl)c(Cl)c1 in this assay.
Reply: inactive

Ask: Dear all, I need the recorded test outcome for Clc1ccc([I+]c2cccs2)cc1 , thank you.
Reply: active

Ask: Outcome? OC1CCC(COC(c2ccccc2)(c2ccccc2)c2ccccc2)O1 (stereo not drawn)
Reply: active

Ask: What classification did CCCc1cc2c(cc1CS(=O)(=O)CC)OCO2 end up with in this test?
Reply: inactive

Ask: What call does the record list for COc1ccc(/C=C2\NC(=O)NC2=O)cc1 ?
Reply: inactive

Ask: Name the outcome recorded for CC1=C(C)C(=O)C(CNCc2ccccc2)=[C-]C1=O.[Co].[c-]1[c-][c-][cH-][c-]1 in the assay.
Reply: inactive

Ask: Hello, I am checking results. What call was entered for C=CS(=O)(=O)c1ccc(C)cc1 ?
Reply: inactive

Ask: Please let me know the test result on file for c1ccc2cc3c(ccc4cccc[n+]43)cc2c1 .
Reply: inactive

###

- measurement_notes: NCI Yeast Anticancer Drug Screen. Data for the sgs1 mgt1 strain (AID 161);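 also: 0% = growth of cultures given vehicle only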
- condition_set: S. cerevisiae sgs1 mgt1 strain, at 5.0 µM (retest, dose inferred, filed as 0.5), active compounds read high
- Protocol: Growth inhibition of yeast strains with defined genetic alterations is measured as a screen for potential anti-cancer activity. Selected strains with alterations in DNA damage repair or cell cycle control were exposed to compounds and growth inhibition was measured relative to vehicle treated controls. The strain used in this assay is sgs1 mgt1
This is part of a sample that, as a whole, favours compounds with a hit. Of some 79,000 tested, about 15% had one in any assay. Calls of active or inactive are those of the source. Rule as the data show it: active = growth inhibition above about 70%; inactive = the rest.
assay_readout: growth inhibition

{"compound": "O=C(O)C(SC1=NNC2(C(=O)N1)c1ccccc1-c1ccccc12)SC1=NNC2(C(=O)N1)c1ccccc1-c1ccccc12", "growth inhibition": "2% (inactive)"}

Ask: Fill in: growth inhibition of OCCc1cccc2ccc3ccccc3c12 is ___
Reply: -4% (inactive)

Ask: Param item = O=C(N(c1ccc(Cl)cc1)c1ccc(Cl)cc1)C(Cl)(Cl)Cl ; retrieve measured growth inhibition.
Reply: 14% (inactive)

Ask: Consider the compound shown here: CCOC(C)(OCC)C(N)c1ccccc1 (stereo unspecified) What is its recorded growth inhibition?
Reply: 6% (inactive)

Ask: growth inhibition lookup needed for CC12OC1C(=O)c1ccccc1C2=O (stereo unspecified) , thanks.
Reply: 9% (inactive)
